Reported GI50 values, HCT-15.
Supply the numeric figure in µM, leaving out any unit text.

INPUT: What does the data say about its GI50? Entry: O=C(/C=C/c1ccccc1)NC1C=Nc2ccc(Cl)cc2NC1=O (centres undefined)
OUTPUT: 22.1

INPUT: Then "Nc1n[n+]([O-])c2cnccc2[n+]1[O-]" ?
OUTPUT: 32

INPUT: Then NCCN1C(=O)c2cc(Cl)c(Cl)cc2C1(O)c1ccc(Cl)cc1 (centres undefined) ?
OUTPUT: 2.4

INPUT: Then CN1C(=S)C(c2ccccc2)Sc2ccccc21 (centres undefined) ?
OUTPUT: 52.1

* * *

Tested on: HCC 2998
ASSAY DETAILS: NCI tumour cell line growth inhibition, 48 h
Activity calls are given as the source filed them. Cut-off read from the data, not from the text of the source: active = GI50 up to about 1.1 µM and inactive = higher.
MEASUREMENT TYPE: GI50

INPUT: Any idea what GI50 came out for "O=C(Nc1ccccc1)N1C(c2ccccc2)=N[C@@H](c2ccccc2)[C@@H]1c1ccccc1" on HCC 2998?
OUTPUT: 18.5 µM (inactive)

INPUT: Then "COc1ccc(C2=NN(C(C)=O)c3nc4ccccc4nc3O2)cc1" ?
OUTPUT: > 100 µM (inactive)

INPUT: Then "Cc1cc2c(cc1C)C(=O)/C(=C/c1ccccc1C(=O)O)C2" ?
OUTPUT: 27.4 µM (inactive)

INPUT: Then CC(=O)O/C=C1/C[C@H]2[C@@H]3CCC4CC(C(C)=O)CC[C@]4(C)[C@H]3CC[C@]2(C)C1=O (stereo partly drawn) ?
OUTPUT: > 100 µM (inactive)

INPUT: Then COc1cc(C2S/C(=C/c3ccccc3)C(=O)N2c2ccccn2)cc(OC)c1OC (stereo not drawn) ?
OUTPUT: 15.7 µM (inactive)

INPUT: Then O=C(/C=C/c1ccccc1)NC1C=Nc2ccc(Cl)cc2NC1=O (stereo not drawn) ?
OUTPUT: 21.2 µM (inactive)

INPUT: Then "C(=C\N1CCCCC1)/c1nnnn1-c1ccccc1" ?
OUTPUT: 90.6 µM (inactive)

INPUT: Then COc1cc(C2SCC(=O)N2c2ccc(Cl)cc2)cc(OC)c1OC (stereo not drawn) ?
OUTPUT: > 30.2 µM (inactive)

* * *

Test system: SW-620
ASSAY DETAILS: NCI tumour cell line growth inhibition, 48 h
Calls of active or inactive are those of the source. Rule as the data show it: active = GI50 up to about 1.1 µM and inactive = higher.
Answer each item with its documented GI50.

INPUT: Any idea what GI50 came out for "Cc1ccc(NC(=O)C(=O)CC(=O)c2c(C)[n+]([O-])c3ccccc3[n+]2[O-])cc1" on SW-620?
OUTPUT: 33.7 µM (inactive)

INPUT: Then "N#Cc1ccc(-n2c3ccccc3c3ccc4c(c32)C(=O)C=CC4=O)cc1" ?
OUTPUT: 1.92 µM (inactive)

INPUT: Then "O=C(O)c1ccc(N/C(=C(/C(Cl)=C(Cl)Cl)[N+](=O)[O-])n2nnc3ccccc32)cc1" ?
OUTPUT: > 100 µM (inactive)

INPUT: Then "C/C(=N\O)c1cccc[n+]1Cc1ccccc1" ?
OUTPUT: > 100 µM (inactive)

INPUT: Then "CN(C(=O)[C@@H](NC(=O)OC(C)(C)C)c1ccccc1)[C@H]1CCCC[C@@H]1N1CCCC1" ?
OUTPUT: > 100 µM (inactive)

INPUT: Then "COc1ccc(Nc2nc3cc(C(F)(F)F)ccc3nc2-c2ccccc2)cc1OC" ?
OUTPUT: 35.5 µM (inactive)

INPUT: Then "Nc1ccc(C(=O)O)cc1.Nc1nc(N)c2nc[nH]c2n1" ?
OUTPUT: 25.7 µM (inactive)

INPUT: Then CC(CN(C)C)C(=O)c1ccccc1C(=O)O (stereo not given) ?
OUTPUT: 29.3 µM (inactive)

INPUT: Then COC12OCCN(C)C1=CC(=O)C1=NNC(C)C12 (stereo not given) ?
OUTPUT: > 100 µM (inactive)

INPUT: Then "C[C@]12C[C@H](c3ccccc3)Nc3ccccc3N1C(c1ccccc1)=NO2" ?
OUTPUT: > 100 µM (inactive)

Where do the numbers come from? From ChEMBL document CHEMBL1201862.
